Reference source for all entries: ChEMBL document CHEMBL3091303

The reader will find reported Ki values listed item by item below.
Test target: Adenosine receptor A2a (Rattus norvegicus)
Sequence (P30543 whole entry): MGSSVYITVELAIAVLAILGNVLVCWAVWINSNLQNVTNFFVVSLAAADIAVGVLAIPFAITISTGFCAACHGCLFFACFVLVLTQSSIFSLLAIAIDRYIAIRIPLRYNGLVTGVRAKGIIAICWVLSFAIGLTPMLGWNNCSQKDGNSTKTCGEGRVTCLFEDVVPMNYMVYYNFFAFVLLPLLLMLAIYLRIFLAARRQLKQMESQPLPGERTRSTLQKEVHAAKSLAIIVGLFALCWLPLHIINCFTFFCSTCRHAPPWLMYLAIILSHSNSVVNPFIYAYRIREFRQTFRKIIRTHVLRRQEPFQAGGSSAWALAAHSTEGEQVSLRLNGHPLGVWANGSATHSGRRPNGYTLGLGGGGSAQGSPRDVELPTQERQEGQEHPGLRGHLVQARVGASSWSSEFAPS
Assay notes: Displacement of [3H]MSX-2 from adenosine A2A receptor in rat brain striatum
Assay type: tissue-based
Your answer should be a plain number; it is taken to be in µM.

# example entries with known answers
| Structure string | Readout unit | Ki |
| --- | --- | --- |
| Cn1c(=O)c2c(nc3n2CCCN3c2cc(Cl)cc(Cl)c2)n(C)c1=O | µM | 5.54 |
| C#CCn1c(=O)c2c(nc3n2CCCN3c2ccc(F)cc2)n(C)c1=O | µM | 1.94 |
| C#CCn1c(=O)c2c(nc3n2CCCN3Cc2cccs2)n(C)c1=O | µM | 0.259 |

Next compound, please.
QUERY: Give a short answer stating reported Ki for "C#CCn1c(=O)c2c(ncn2C)n(C)c1=O" .
RESULT: 5.6

----------
Test target: Adenosine receptor A3 (Homo sapiens)
Assay notes: Displacement of [3H]PSB-11 from human adenosine A3 receptor expressed in CHO cells relative to control
Assay type: cell-based
Set-up: concentration or dose not given beside the values
Condition context: concentration not given here
Hi all, reminder that labels come from inhibition, split as low = under 20%, intermediate = from 20% up to 30%, high = 30% and over

Solved entries:
| Structure string | Test target | Class name |
| --- | --- | --- |
| Cn1c(=O)c2c(nc3n2CCCN3CCc2ccc(Cl)cc2)n(C)c1=O | Adenosine receptor A3 (Homo sapiens) | high |
| Cn1c(=O)c2c(nc3n2CCCN3CC(=O)N2CCN(Cc3ccccc3)CC2)n(C)c1=O | Adenosine receptor A3 (Homo sapiens) | intermediate |
| CCn1c(=O)c2c(nc3n2CCCN3CCc2cc(OC)c(OC)c(OC)c2)n(CC)c1=O | Adenosine receptor A3 (Homo sapiens) | intermediate |

QUERY: Assign a bin to "C#CCn1c(=O)c2c(nc3n2CCCN3Cc2cccnc2)n(C)c1=O"
RESULT: low

QUERY: Please report the category associated with "Cn1c(=O)c2c(nc3n2CCCN3c2ccc(Cl)c(Cl)c2)n(C)c1=O" , nothing else.
RESULT: low

QUERY: Classify this molecule: "Cn1c(=O)c2c(nc3n2CCCN3CC(=O)N2CCN(Cc3ccc(Cl)cc3)CC2)n(C)c1=O"
RESULT: intermediate

QUERY: Band for "CCn1c(=O)c2c(nc3n2CCCN3CCc2ccc(OC)c(OC)c2)n(CC)c1=O" ?
RESULT: high

QUERY: Sort into band: "C#CCn1c(=O)c2c(nc3n2CCCN3c2cc(OC)cc(OC)c2)n(C)c1=O"
RESULT: intermediate

QUERY: Lab note: sort "CCn1c(=O)c2c(nc3n2CCCN3c2ccc(O)cc2)n(CC)c1=O" into the matching inhibition band.
RESULT: intermediate

QUERY: Could you place "C#CCn1c(=O)c2c(nc3n2CCCN3C2CCC2)n(C)c1=O" in its proper category? Many thanks.
RESULT: low

----------
// values below are reported pKi
Test target: Adenosine receptor A1 (Rattus norvegicus)
Sequence (P25099 whole entry): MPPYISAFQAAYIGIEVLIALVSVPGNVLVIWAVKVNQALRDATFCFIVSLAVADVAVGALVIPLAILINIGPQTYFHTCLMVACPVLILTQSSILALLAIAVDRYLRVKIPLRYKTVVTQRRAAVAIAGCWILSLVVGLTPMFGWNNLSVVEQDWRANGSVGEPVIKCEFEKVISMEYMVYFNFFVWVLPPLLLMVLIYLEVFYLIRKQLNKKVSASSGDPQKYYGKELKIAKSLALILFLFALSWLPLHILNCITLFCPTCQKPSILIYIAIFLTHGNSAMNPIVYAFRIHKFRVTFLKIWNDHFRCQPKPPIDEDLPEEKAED
Assay notes: Displacement of [3H]CCPA from adenosine A1 receptor in rat brain cortex
Assay type: tissue-based
Keep in mind that pKi stands for -log10 of concentration in molar terms.

Reference set, count: 5
| Structure string | Test target | pKi |
| --- | --- | --- |
| C#CCn1c(=O)c2c(nc3n2CCCN3CCc2ccc(OC)cc2)n(C)c1=O | Adenosine receptor A1 (Rattus norvegicus) | 5.50 |
| Cn1c(=O)c2c(nc3n2CCCN3CCc2ccc(Cl)cc2)n(C)c1=O | Adenosine receptor A1 (Rattus norvegicus) | 5.52 |
| CCn1c(=O)c2c(nc3n2CCCN3CCc2ccccc2OC)n(CC)c1=O | Adenosine receptor A1 (Rattus norvegicus) | 6.30 |
| CCn1c(=O)c2c(nc3n2CCCN3C2CCCCC2)n(CC)c1=O | Adenosine receptor A1 (Rattus norvegicus) | 6.49 |
| C#CCn1c(=O)c2c(nc3n2CCCN3Cc2ccccc2OC)n(C)c1=O | Adenosine receptor A1 (Rattus norvegicus) | 5.97 |

Now let's try a different one.
QUERY: Return value of pKi for input "CCn1c(=O)c2c(nc3n2CCCN3c2ccc(F)cc2)n(CC)c1=O" , no commentary.
RESULT: 6.26
